Assay: p53 small molecule agonists, cell-based qHTS assay with human liver microsomes (AID 1963577);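 further: p53 response element beta-lactamase reporter cells with liver microsomes plus NADPH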
Conditions: HCT-116 p53RE-bla with human liver microsomes, ratio, 16 h; series mostly up to 66 µM
Results filed as inconclusive are left out. Active and inactive are the calls of the source. The call rests on the fitted dose curve.
RECORDED_METRIC: activation

Answered examples (4):
INSERT INTO measurements (compound, recorded_metric, measured_result) VALUES
  ('CC(=O)OC1(c2ccccc2)CCN(CCc2ccccc2)CC1', 'activation', 'inactive'),
  ('C=CC(=O)OCC(COC(=O)C=C)(COC(=O)C=C)COC(=O)C=C', 'activation', 'inactive'),
  ('CC(CC(C#N)(c1ccccc1)c1ccccc1)N(C)C (stereo not drawn)', 'activation', 'inactive'),
  ('CC(=O)c1ccc(-c2ccccc2)cc1', 'activation', 'inactive');

Problem: Please give the measured activation for this compound: `CC(C)(Cl)[N+](=O)[O-]`
Solution: inactive

Problem: Entry `N#CC(C#N)=Cc1ccc(O)c(O)c1` has what activation?
Solution: inactive

Problem: Please report the recorded activation for CC(C)NCC(O)c1ccccc1Cl (stereo not drawn) .
Solution: inactive

Problem: Suppose we examine the compound `O=C(NC(=O)c1cc(F)c(F)cc1Cl)Nc1cc(F)ccc1N1CCC(C(=O)O)CC1` ; what activation value has been reported?
Solution: inactive

Problem: // returns reported activation for input `CC(C)(C#N)C(C)(C)C#N`
Solution: inactive

Problem: Can you look up the measured activation of `CON(C)C(=O)Nc1ccc(Br)cc1` for me?
Solution: inactive

Problem: Quick check: activation of `CS(=O)(=O)c1cc(C(F)(F)F)ccc1C(=O)c1cnoc1C1CC1` ?
Solution: inactive

Problem: Consider the compound `COC1=CC(=O)O[C@@H](/C=C/c2ccc3c(c2)OCO3)C1` and give its measured activation.
Solution: inactive

Problem: Any idea what its activation is? The compound is `COc1ccc(C(=O)c2c(C)n(CCN3CCOCC3)c3ccccc23)cc1`
Solution: inactive

====

Experiment: p53 small molecule agonists, cell-based qHTS assay with human liver microsomes: qHTS cell viability counter screen (AID 1963579); further: nearly all actives have a fitted effect of over 45% in size
Conditions: p53RE-bla HCT-116 viability, ATP luminescence, 16 h, HLM; series mostly up to 66 µM
Source text: National Center for Advancing Translational Sciences [NCATS] Division of Preclinical Innovation [DPI] U.S. Environmental Protection Agency [EPA] National Institutes of Environmental Health Sciences [NIEHS] National Toxicology Program [NTP] U.S. Food and Drug Administration [FDA] p53, a tumor suppressor protein, is activated following cellular insult, including DNA damage and other cellular stresses. […] The activation of the reporter gene under culture conditions can be detected by fluorescence intensity. […]
Results filed as inconclusive are left out. The source made the active and inactive calls. Calls follow the shape of the full dose curve.
RECORDED_METRIC: Potency

Below, each entry is followed by its recorded Potency result.
INSERT INTO results (compound, measured_result) VALUES
  ('CC(C)CP(=S)(S)CC(C)C', 'inactive'),
  ('CC1(C(=O)Nc2ccc(O)c(Cl)c2Cl)CCCCC1', 'inactive'),
  ('ClCc1cccc(Cl)c1', 'inactive'),
  ('CCc1cc(OC)c(C[C@H](C)N)cc1OC', 'inactive'),
  ('CCOP(=S)(OCC)Oc1cc(-c2ccccc2)on1', 'inactive');

Problem: What does the record list as Potency for `CSSC` ?
Solution: inactive

Problem: Quick one: Potency for `C[N+](C)=CCl` ?
Solution: inactive
